Origin of measurements: patent US7002022B2

melting point values for the molecules below.

// worked examples, melting point included
smiles_record | reported_value
COc1ccc(NCc2ccncc2)c(C(=O)Nc2cccc(C(F)(F)F)c2)c1 | 175 to 178 °C
O=C(Nc1cc(Cl)cc(C(F)(F)F)c1)c1ccccc1NCc1ccncc1 | 190 to 194 °C
O=C(Nc1cccc(C(F)(F)F)c1)c1ccccc1NCCc1cccnc1 | 102 to 103 °C

The recorded melting point for O=C(Nc1cccc(Br)c1)c1ccccc1NCc1ccncc1 is 156 to 159 °C

The recorded melting point for CC(=O)Nc1cccc(NC(=O)c2ccccc2NCc2ccncc2)c1 is 157 to 158 °C

The recorded melting point for O=C(Nc1cccc(C(F)(F)F)c1)c1ccccc1NCc1ccnc2ccccc12 is 191 to 193 °C

The recorded melting point for CC(C)(C)c1ccc(NC(=O)c2ccccc2NCc2ccncc2)cc1 is 168 to 170 °C

The recorded melting point for O=C(Nc1cccc(C(F)(F)F)c1)c1ccccc1NCc1cccnc1 is 140 to 142 °C

The recorded melting point for Cc1ccc(NC(=O)c2ccccc2NCc2ccncc2)cc1Cl is 143 °C
